Tested on: HMLE_sh_eGFP viability, CellTiter-Glo luminescence, 72 h
Experiment: cytotoxicity in HMLE control line with eGFP shRNA, dose response, counter-screen for HMLE_sh_ECad selective toxicity project, cell-based, HMLE_sh_eGFP, luminescence (AID 463074);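 further: counterscreen control line to flag general toxicity for the HMLE_sh_ECad screen; potency for loss of viability as luminescence drops below DMSO wells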
Active and inactive are the calls of the source.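 How the source made its calls: active means AC50 no more than tenfold above the top dose tested, or full inhibition at every dose with a flat fit (cut at about 19 µM in these data); inconclusive means flat curve fit with inhibition between 30% and 70%, or poor fit; inactive means AC50 more than tenfold above the top dose tested.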
Classes used: active, inactive

| molecule | class.assignment |
| --- | --- |
| CC(=O)Nc1sc(C)c(C)c1C(=O)OCC(=O)N(CC(C)C)c1c(N)n(Cc2ccccc2)c(=O)[nH]c1=O | active |
| COc1cc(/C=C(\C#N)C(=O)NC2CCCCC2C)ccc1OS(=O)(=O)c1ccc(C)cc1 (stereo not given) | active |
| O=C1CC(=C(c2ccccc2)c2ccccc2)C(=O)N1CCCCN1CCN(c2cccc(Cl)c2)CC1 | active |
| CCN(CC(=O)Nc1ccc(NC(C)=O)cc1)C(=O)c1ccccc1CCc1ccccc1 | inactive |
| Cc1ccc(NNC(=O)C(O)(c2cccc(C(F)(F)F)c2)c2cccc(C(F)(F)F)c2)cc1 | active |
| O=C1c2ccccc2NC(c2ccc(-c3cccc(Cl)c3)o2)N1O (stereo not given) | active |
| CC1CCN(CCCNC(=O)c2ccc3c(=O)n(Cc4ccc(Cl)cc4)c(=S)[nH]c3c2)CC1 | active |
| O=c1cc(N2CCCCC2)c(-c2ccccc2)nn1Cc1c(Cl)cccc1Cl | active |
| N#CC(C#N)=C(C#N)c1ccc(Nc2ccccc2)cc1 | active |
| CCCCNc1c(-c2ccc(OC)c(Sc3ccc(OC)cc3)c2)nc2ccccn12 | active |
| FC(F)Oc1ccc(-c2csc(NNC3=NCCCCC3)n2)cc1 | active |
| CCc1ccccc1Nc1nn2c(=O)c3ccc(C(=O)NCc4ccccn4)cc3nc2s1 | active |
| N#C/C(=C/c1cn(-c2ccccc2)nc1-c1cccc(OCc2ccccc2)c1)C(=O)NCCCn1ccnc1 | active |
| CC(=O)c1ccc(NC(=O)COC(=O)c2c3c(nc4ccccc24)/C(=C\c2cccs2)CCC3)cc1 | active |
| CC(C)Cc1nc2oc3c(Cl)ncnc3c2c2c1CCC2 | active |
| CCOC(=O)N1CCN(c2ccc(C(=O)c3cccc(F)c3)cc2)CC1 | inactive |
| O=C(N/N=C\c1cc(Br)ccc1O)c1ccc(S(=O)(=O)N2CCCCC2)cc1 | active |
| S=c1[nH]nc(COc2ccccc2)n1/N=C/C(Cl)=C/c1ccccc1 | active |
| Brc1ccc2[nH]c3c(N4CCc5ccccc5C4)ncnc3c2c1 | active |
| Cc1cccc(N(C)C(=O)c2cc3c(=O)[nH]c4ccc(C)cc4c3s2)c1 | active |

----------
System: HMLE_sh_eGFP viability, CellTiter-Glo luminescence, 72 h
Assay: cytotoxicity in HMLE control line with eGFP shRNA, dose response, counter-screen for HMLE_sh_ECad selective toxicity project, cell-based, HMLE_sh_eGFP, luminescence (AID 463074);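 further: counterscreen control line to flag general toxicity for the HMLE_sh_ECad screen; potency for loss of viability as luminescence drops below DMSO wells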
property: AC50

| compound | property | reported.result |
| --- | --- | --- |
| CC(C)=CCc1c(O)ccc(C(=O)Cc2ccccc2)c1O | AC50 | 4.41 µM |
| O=C1C2C(c3ccccc3)CC=CC2[C@H](c2ccc(C(F)(F)F)cc2)N1Cc1ccccc1 (stereo not given in full) | AC50 | 5.89 µM |
| CC1(C)CC[C@@]2(C(=O)O)C(C1)C1=CCC3[C@@]4(C)CC[C@H](O)C(C)(C)C4CC[C@@]3(C)[C@]1(C)C[C@H]2O (stereo not given in full) | AC50 | 7.84 µM |
| C=CCNc1ncnc2c1ncn2C1OC(CO)C(O)C1O (stereo not given) | AC50 | 4.39 µM |
| Cc1ccc(C(C)C)c(OCc2nn(CC(=O)c3ccc(Cl)cc3)c3[n+]2CCCCC3)c1 | AC50 | 3.22 µM |
| Cc1ccc(NC(=O)/C=C/c2ccc([N+](=O)[O-])s2)c(C)c1 | AC50 | 2.3 µM |
| COc1cccc(S(=O)(=O)NCc2ccc(C(=O)Nc3cccc(Cl)c3)cc2)c1 | AC50 | 4.74 µM |
| Clc1ccccc1Cn1c(/C=C/c2ccco2)nc2ccccc21 | AC50 | 2.19 µM |
| CCCCNc1c(-c2ccc(-c3cccc(Cl)c3)cc2)nc2ccccn12 | AC50 | 3.87 µM |
| COC(=O)c1cccc(NC(=O)Nc2ccc(Cl)c(Cl)c2)c1 | AC50 | 11.4 µM |
| CCOC(=O)c1ccc(-n2[nH]c(-c3ccccc3)cc2=O)cc1 | AC50 | 7.96 µM |
| C/C(=N\Nc1ccccc1)c1c(O)n(-c2ccccc2)c(=O)[nH]c1=O | AC50 | 2.45 µM |
| Cc1cc(C(=O)NNc2ccc(F)cc2F)no1 | AC50 | 1.6 µM |
| CCC1C=CC=CC[C@H](C)[C@@H](O)[C@](C)(O)C(=O)[C@@H](C)[C@H](O)[C@@H](C)C(=O)[C@H](C)[C@@H](O)[C@H](C)C=CC(=O)OC2[C@@H](C)C(CC1)OC1(CC[C@@H](C)C(C[C@H](C)O)O1)[C@@H]2C (stereo not given in full) | AC50 | 3.2 µM |
| O=C(/C=C/c1ccccc1)NNc1ccc(Cl)cc1 | AC50 | 12 µM |
| O=[N+]([O-])c1ccc(Cl)c([N+](=O)[O-])c1 | AC50 | 5.62 µM |
| O=C(Cn1c2ccccc2c(=O)c2ccccc21)N/N=C/c1ccc(N2CCCC2)c([N+](=O)[O-])c1 | AC50 | 2.43 µM |
| O=S(=O)(Nc1ccc(-c2nnc(SCc3ccc(Cl)cc3)o2)cc1)c1ccccc1 | AC50 | 3.6 µM |
| COc1ccc(C(=O)NNc2ccccc2)cc1OC | AC50 | 1.83 µM |
| Cc1ccc(C(C[N+](=O)[O-])n2nc(C)cc2C)cc1 (stereo not given) | AC50 | 6.74 µM |
